Biological target: PKC-δ (Homo sapiens, UniProt Q05655)
Sequence (Q05655 whole entry): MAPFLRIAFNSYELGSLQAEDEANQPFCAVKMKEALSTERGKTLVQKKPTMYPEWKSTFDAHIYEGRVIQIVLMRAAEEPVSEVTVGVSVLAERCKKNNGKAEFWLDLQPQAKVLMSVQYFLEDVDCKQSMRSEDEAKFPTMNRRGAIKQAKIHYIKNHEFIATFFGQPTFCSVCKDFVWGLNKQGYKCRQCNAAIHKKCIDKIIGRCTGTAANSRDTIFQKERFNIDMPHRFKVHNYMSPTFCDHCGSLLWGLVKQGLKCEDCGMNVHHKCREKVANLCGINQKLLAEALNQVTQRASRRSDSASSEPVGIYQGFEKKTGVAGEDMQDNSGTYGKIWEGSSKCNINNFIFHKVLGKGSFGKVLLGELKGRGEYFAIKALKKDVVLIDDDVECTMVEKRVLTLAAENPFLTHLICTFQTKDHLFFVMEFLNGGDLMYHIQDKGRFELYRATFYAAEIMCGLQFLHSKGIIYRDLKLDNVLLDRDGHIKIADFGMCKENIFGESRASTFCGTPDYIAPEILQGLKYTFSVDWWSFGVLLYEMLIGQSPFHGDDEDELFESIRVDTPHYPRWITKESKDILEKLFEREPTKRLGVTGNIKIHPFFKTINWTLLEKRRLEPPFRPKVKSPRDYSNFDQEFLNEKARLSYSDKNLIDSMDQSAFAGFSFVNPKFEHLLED
Experiment: Competitive binding assay using cell extracts (Western blot)
Set-up: cytoplasmic extracts from different cell lines expressing appropriate PKC isoforms; endogenous in cells; host or cells: H661, MDAMB231, LS180, T24; key: —: no detectable affinity; Low to very low affinity at 10X or 20X or both PRE concentrations in at least one cell line in the cell extract assay; Low affinity in purified isoform assay.; Moderate affinity at 10X or 20X or both PRE concentrations in at least one cell line in the cell extract assay.; High affinity at 10X or 20X or both PRE concentrations in at least one cell line in the cell extract assay; High affinity in purified isoform assay
Settings: Cell extract; PRE 10X or 20X antibody concentration
[ ]: non-standard residue; d: D form.
measured parameter: Affinity for PKC isoform δ

Observe how each entry below is paired with its result.
substance	measured parameter	result
ILEDKGGDAQNLIGISI [PRE 8]	Affinity for PKC isoform δ	L
RRKKGGKDFVVKR [PRE 1]	Affinity for PKC isoform δ	—
Ac-ISIGILNQADK-NH2 [PRE 10]	Affinity for PKC isoform δ	H
Ac-isigilqnadk-NH2 (Ac-[dI][dS][dI]G[dI][dL][dQ][dN][dA][dD][dK]-NH2; SMILES CC[C@@H](C)[C@@H](NC(C)=O)C(=O)N[C@H](CO)C(=O)N[C@@H](C(=O)NCC(=O)N[C@@H](C(=O)N[C@H](CC(C)C)C(=O)N[C@H](CCC(N)=O)C(=O)N[C@H](CC(N)=O)C(=O)N[C@H](C)C(=O)N[C@H](CC(=O)O)C(=O)N[C@H](CCCCN)C(N)=O)[C@H](C)CC)[C@H](C)CC) [PRE 9]	Affinity for PKC isoform δ	H
Ac-KDAQNLI-NH2 [PRE 12]	Affinity for PKC isoform δ	—
Ac-RDAQNLI-NH2 [PRE 13]	Affinity for PKC isoform δ	—

The substance Ac-RDAQNLIGISI-NH2 [PRE 11] showed Affinity for PKC isoform δ equal to —

The substance Ac-KDANQLIGISI-NH2 [PRE 6] showed Affinity for PKC isoform δ equal to M/H

The substance Ac-ISIGILQNADK-NH2 (not fully specified; printed as Ac-ISIGILQNADK-NH2) [PRE 7] showed Affinity for PKC isoform δ equal to L

====

Target: PKC-βI (Homo sapiens, UniProt P05771)
Sequence (P05771 whole entry, canonical isoform): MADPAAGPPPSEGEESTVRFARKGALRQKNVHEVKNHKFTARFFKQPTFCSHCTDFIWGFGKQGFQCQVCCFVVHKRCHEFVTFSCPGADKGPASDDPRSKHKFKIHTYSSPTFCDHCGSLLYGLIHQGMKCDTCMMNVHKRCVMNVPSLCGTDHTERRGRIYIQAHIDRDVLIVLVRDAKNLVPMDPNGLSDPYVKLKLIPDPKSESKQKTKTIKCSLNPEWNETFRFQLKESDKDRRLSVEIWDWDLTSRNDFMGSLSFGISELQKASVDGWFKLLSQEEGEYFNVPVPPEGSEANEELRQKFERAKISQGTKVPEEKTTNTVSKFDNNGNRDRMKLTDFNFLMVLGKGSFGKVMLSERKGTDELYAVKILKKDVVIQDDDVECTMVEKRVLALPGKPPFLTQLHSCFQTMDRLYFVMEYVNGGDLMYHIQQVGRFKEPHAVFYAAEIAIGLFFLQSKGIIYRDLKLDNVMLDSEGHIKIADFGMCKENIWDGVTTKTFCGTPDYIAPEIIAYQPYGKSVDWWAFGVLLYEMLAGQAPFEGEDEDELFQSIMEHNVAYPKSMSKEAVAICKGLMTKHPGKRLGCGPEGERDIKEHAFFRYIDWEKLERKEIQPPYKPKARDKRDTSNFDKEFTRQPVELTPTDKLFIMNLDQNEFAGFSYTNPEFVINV
Experiment: ELISA-based competitive binding assay with purified PKC isoform
Set-up: key: —: no detectable affinity; Low to very low affinity at 10X or 20X or both PRE concentrations in at least one cell line in the cell extract assay; Low affinity in purified isoform assay.; Moderate affinity at 10X or 20X or both PRE concentrations in at least one cell line in the cell extract assay.; High affinity at 10X or 20X or both PRE concentrations in at least one cell line in the cell extract assay; High affinity in purified isoform assay
Details: Purified isoform
[ ]: non-standard residue; d: D form.
measured parameter: Affinity for PKC isoform βI

substance	result
RRKKGGKDFVVKR [PRE 1]	H
Ac-isigilqnadk-NH2 (Ac-[dI][dS][dI]G[dI][dL][dQ][dN][dA][dD][dK]-NH2; SMILES CC[C@@H](C)[C@@H](NC(C)=O)C(=O)N[C@H](CO)C(=O)N[C@@H](C(=O)NCC(=O)N[C@@H](C(=O)N[C@H](CC(C)C)C(=O)N[C@H](CCC(N)=O)C(=O)N[C@H](CC(N)=O)C(=O)N[C@H](C)C(=O)N[C@H](CC(=O)O)C(=O)N[C@H](CCCCN)C(N)=O)[C@H](C)CC)[C@H](C)CC) [PRE 9]	L

====

Target: PKC-ζ (Homo sapiens, UniProt Q05513)
Sequence (Q05513 1-592): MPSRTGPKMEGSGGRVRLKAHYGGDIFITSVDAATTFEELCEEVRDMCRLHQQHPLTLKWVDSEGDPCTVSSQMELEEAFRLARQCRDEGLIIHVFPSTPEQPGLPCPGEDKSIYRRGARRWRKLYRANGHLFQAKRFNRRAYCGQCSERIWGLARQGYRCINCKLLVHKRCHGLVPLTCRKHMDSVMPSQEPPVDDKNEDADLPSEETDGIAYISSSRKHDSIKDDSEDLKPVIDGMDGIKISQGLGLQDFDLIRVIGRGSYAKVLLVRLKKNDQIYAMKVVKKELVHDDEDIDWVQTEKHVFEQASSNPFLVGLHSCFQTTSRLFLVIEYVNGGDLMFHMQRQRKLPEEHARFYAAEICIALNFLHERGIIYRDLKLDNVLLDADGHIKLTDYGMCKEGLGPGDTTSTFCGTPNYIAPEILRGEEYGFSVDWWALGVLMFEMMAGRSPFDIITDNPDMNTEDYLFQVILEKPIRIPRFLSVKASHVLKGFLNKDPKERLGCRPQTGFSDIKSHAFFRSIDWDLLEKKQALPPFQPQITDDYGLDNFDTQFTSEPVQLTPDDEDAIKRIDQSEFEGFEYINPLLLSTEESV
Experiment: ELISA-based competitive binding assay with purified PKC isoform
Design: key: —: no detectable affinity; Low to very low affinity at 10X or 20X or both PRE concentrations in at least one cell line in the cell extract assay; Low affinity in purified isoform assay.; Moderate affinity at 10X or 20X or both PRE concentrations in at least one cell line in the cell extract assay.; High affinity at 10X or 20X or both PRE concentrations in at least one cell line in the cell extract assay; High affinity in purified isoform assay
Settings: Purified isoform
[ ]: non-standard residue; d: D form.
measured parameter: Affinity for PKC isoform ζ

substance	result
Ac-RDAQNLIGISI-NH2 [PRE 11]	—
Ac-isigilqnadk-NH2 (Ac-[dI][dS][dI]G[dI][dL][dQ][dN][dA][dD][dK]-NH2; SMILES CC[C@@H](C)[C@@H](NC(C)=O)C(=O)N[C@H](CO)C(=O)N[C@@H](C(=O)NCC(=O)N[C@@H](C(=O)N[C@H](CC(C)C)C(=O)N[C@H](CCC(N)=O)C(=O)N[C@H](CC(N)=O)C(=O)N[C@H](C)C(=O)N[C@H](CC(=O)O)C(=O)N[C@H](CCCCN)C(N)=O)[C@H](C)CC)[C@H](C)CC) [PRE 9]	—
RRKKGGKDFVVKR [PRE 1]	—

====

Biological target: PKC-ζ (Homo sapiens, UniProt Q05513)
Sequence (Q05513 1-592): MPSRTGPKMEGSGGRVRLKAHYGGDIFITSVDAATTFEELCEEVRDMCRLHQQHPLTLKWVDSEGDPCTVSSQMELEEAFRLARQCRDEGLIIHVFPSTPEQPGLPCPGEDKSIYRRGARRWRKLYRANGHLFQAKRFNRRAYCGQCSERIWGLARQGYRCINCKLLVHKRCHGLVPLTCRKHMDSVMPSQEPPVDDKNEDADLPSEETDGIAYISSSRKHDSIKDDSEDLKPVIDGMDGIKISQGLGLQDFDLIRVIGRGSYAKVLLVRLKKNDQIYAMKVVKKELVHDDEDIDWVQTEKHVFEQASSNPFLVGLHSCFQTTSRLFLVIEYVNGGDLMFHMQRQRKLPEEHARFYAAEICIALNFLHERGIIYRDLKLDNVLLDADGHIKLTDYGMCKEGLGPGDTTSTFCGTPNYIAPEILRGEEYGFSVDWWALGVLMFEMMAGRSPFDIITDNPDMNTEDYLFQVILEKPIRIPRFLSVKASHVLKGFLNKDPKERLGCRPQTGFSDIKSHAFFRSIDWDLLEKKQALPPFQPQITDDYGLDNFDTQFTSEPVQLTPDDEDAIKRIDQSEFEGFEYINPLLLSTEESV
Assay: Competitive binding assay using cell extracts (Western blot)
Set-up: cytoplasmic extracts from different cell lines expressing appropriate PKC isoforms; endogenous in cells; host or cells: H661, CCD16Lu, LnCAP, MDAMB231, Du145; key: —: no detectable affinity; Low to very low affinity at 10X or 20X or both PRE concentrations in at least one cell line in the cell extract assay; Low affinity in purified isoform assay.; Moderate affinity at 10X or 20X or both PRE concentrations in at least one cell line in the cell extract assay.; High affinity at 10X or 20X or both PRE concentrations in at least one cell line in the cell extract assay; High affinity in purified isoform assay
Settings: Cell extract; PRE 10X or 20X antibody concentration
[ ]: non-standard residue; d: D form.
measured parameter: Affinity for PKC isoform ζ

Observe how each entry below is paired with its result.
substance	Affinity for PKC isoform ζ
Ac-ISIGILQNADK-NH2 (not fully specified; printed as Ac-ISIGILQNADK-NH2) [PRE 7]	—
Ac-isigilqnadk-NH2 (Ac-[dI][dS][dI]G[dI][dL][dQ][dN][dA][dD][dK]-NH2; SMILES CC[C@@H](C)[C@@H](NC(C)=O)C(=O)N[C@H](CO)C(=O)N[C@@H](C(=O)NCC(=O)N[C@@H](C(=O)N[C@H](CC(C)C)C(=O)N[C@H](CCC(N)=O)C(=O)N[C@H](CC(N)=O)C(=O)N[C@H](C)C(=O)N[C@H](CC(=O)O)C(=O)N[C@H](CCCCN)C(N)=O)[C@H](C)CC)[C@H](C)CC) [PRE 9]	M/L
Ac-ISIGILNQADK-NH2 [PRE 10]	M/L
RRKKGGKDFVVKR [PRE 1]	L
Ac-RDAQNLI-NH2 [PRE 13]	—

The substance Ac-KDANQLIGISI-NH2 [PRE 6] showed Affinity for PKC isoform ζ equal to —

The substance Ac-RDAQNLIGISI-NH2 [PRE 11] showed Affinity for PKC isoform ζ equal to —

The substance Ac-KDAQNLI-NH2 [PRE 12] showed Affinity for PKC isoform ζ equal to M/H
